biological target: Cdc7/Dbf4 (Homo sapiens, UniProt O00311); test: Inhibition assay of Cdc7/Dbf4 activity (Dowex resin capture, MCM2 substrate); details: Cdc7/Dbf4, MCM2 substrate 6 μM, ATP 2 μM
Sequence (O00311 whole entry): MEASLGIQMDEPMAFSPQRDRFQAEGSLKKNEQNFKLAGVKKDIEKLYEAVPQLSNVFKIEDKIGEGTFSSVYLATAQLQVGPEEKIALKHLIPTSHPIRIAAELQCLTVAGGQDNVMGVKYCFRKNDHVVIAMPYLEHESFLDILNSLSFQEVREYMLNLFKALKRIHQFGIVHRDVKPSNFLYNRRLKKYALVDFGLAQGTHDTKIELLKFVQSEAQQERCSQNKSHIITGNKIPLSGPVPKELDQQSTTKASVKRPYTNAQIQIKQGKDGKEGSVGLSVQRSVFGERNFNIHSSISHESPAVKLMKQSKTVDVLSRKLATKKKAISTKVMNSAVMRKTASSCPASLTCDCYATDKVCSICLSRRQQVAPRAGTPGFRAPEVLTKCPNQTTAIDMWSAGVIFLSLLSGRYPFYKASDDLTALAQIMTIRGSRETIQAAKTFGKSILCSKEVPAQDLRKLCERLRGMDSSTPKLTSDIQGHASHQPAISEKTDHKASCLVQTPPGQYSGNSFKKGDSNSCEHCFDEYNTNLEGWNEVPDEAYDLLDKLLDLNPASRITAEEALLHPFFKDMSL
Sequence (Q9UBU7 whole entry partner): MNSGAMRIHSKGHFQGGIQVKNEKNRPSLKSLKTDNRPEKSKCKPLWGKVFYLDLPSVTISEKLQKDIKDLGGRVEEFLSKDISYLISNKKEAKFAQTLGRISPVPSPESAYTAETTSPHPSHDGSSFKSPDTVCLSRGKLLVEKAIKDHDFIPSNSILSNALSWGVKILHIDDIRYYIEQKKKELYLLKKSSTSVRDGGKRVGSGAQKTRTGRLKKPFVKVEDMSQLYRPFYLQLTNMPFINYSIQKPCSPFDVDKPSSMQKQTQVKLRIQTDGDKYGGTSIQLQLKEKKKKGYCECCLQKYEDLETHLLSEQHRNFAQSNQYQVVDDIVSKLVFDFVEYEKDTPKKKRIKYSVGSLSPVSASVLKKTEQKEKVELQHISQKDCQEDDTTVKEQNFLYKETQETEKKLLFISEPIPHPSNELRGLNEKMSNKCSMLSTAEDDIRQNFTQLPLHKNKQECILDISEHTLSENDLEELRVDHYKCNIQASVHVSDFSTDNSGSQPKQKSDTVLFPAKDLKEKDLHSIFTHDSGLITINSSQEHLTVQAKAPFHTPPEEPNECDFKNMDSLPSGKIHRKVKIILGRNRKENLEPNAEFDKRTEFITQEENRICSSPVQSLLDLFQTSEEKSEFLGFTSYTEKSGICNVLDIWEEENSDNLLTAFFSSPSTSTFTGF
pIC50: −log10 of the molar value. Where a name gives a salt, the structure may show the parent alone.
readoutType: pIC50

compound="CC(C)CC1CNC(=O)c2cc(-c3ccncc3)[nH]c21 (centres unmarked) [hydrochloride]" systemundertest="Cdc7/Dbf4 (Homo sapiens, UniProt O00311)" readoutvalue=8.30

P. CC(C)CC1CNC(=O)c2cc(-c3ccncc3F)[nH]c21 (centres unmarked)
Q. O=C1NC(C2CCCCC2)Cc2[nH]c(-c3ccncc3)cc21 (centres unmarked)
R. CCC1CNC(=O)c2cc(-c3ccncc3F)[nH]c21 (centres unmarked)
Sort these compounds on pIC50 so the largest reading comes first. Answer by listing the labels in the order asked for. R, P, Q
(R: 9.00, P: 8.40, Q: 8.10)

a. CC1CNC(=O)c2cc(-c3ccncc3)[nH]c21 (centres unmarked) [hydrochloride]
b. CCC(C)C1CNC(=O)c2cc(-c3ccncc3)[nH]c21 (centres unmarked)
c. O=C1NC(Cc2ccccc2)Cc2[nH]c(-c3ccncc3)cc21 (centres unmarked)
d. O=C1NC(CCc2ccccc2)Cc2[nH]c(-c3ccncc3)cc21 (centres unmarked) [hydrochloride]
Sort these compounds on pIC50 so the largest reading comes first. Answer by listing the labels in the order asked for. b, a, c, d

A. CC(C)C1CNC(=O)c2cc(-c3ccncc3F)[nH]c21 (centres unmarked)
B. CCC1(CC)CNC(=O)c2cc(-c3ccncc3)[nH]c21 [hydrochloride]
Lab note: check whether A or B has the lower measured pIC50. Answer format: the label of the selected item. B
(B: 8.15, A: 8.52)
